The reported numbers originate from patent US20170368082A1.

The reader will find reported concentration at 24 h values listed item by item below.
# method-summary: Phase 2 toxicokinetics of brincidofovir and cidofovir in plasma
# Assay type: in vivo, Sprague-Dawley CD rats
# condition-parameters: female, Sprague-Dawley CD, rat, plasma, intravenous, 1 mg/kg, plasma; brincidofovir 1 mg/kg 2-h IV infusion; female rats; Day 1; 24 h; BLQ imputed as zero; read-out: Imputed Concentration, individual animals

{"columns": ["smiles-repr", "concentration at 24 h [ng/mL]"],
 "data": [
  ["Nc1ccn(C[C@@H](CO)OCP(=O)(O)O)c(=O)n1", 0],
  ["CCCCCCCCCCCCCCCCOCCCOP(=O)(O)CO[C@H](CO)Cn1ccc(N)nc1=O", 0]
]}
